Target: T1, GNAZ 2-355 G-alpha (domain begin residue: 2, domain end residue: 355), P19086
T1 chain: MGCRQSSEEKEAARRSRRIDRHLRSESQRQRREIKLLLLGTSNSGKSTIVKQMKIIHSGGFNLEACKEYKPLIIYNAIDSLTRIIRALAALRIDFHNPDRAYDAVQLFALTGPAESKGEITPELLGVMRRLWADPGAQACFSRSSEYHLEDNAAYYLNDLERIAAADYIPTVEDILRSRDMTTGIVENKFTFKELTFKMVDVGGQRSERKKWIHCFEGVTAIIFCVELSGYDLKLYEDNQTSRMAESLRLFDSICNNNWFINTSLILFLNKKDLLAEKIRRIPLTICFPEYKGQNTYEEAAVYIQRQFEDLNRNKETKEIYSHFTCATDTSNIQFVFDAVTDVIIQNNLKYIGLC
Assay: phage ELISA signal ratio (GST-PRM binding over GST background); higher = stronger binding of peptide-phage to the PRM
Answer False if phage ELISA signal ratio is under 10, and True if it is 10 or more.

[[record]]
binder = "WVWDYSQDQWVPASVQ"
group = "True"

[[record]]
binder = "DVPPLWMMAEYSFPWE"
group = "False"

[[record]]
binder = "PQQHFWEMDVPMIQLW"
group = "False"


IN: I'd appreciate it if you could say whether HDVEPIWSMPWWQMDY has phage ELISA signal ratio at least equal to 10.
OUT: True

IN: I'd appreciate it if you could say whether WETWFEQKEVLIDAYY has phage ELISA signal ratio at least equal to 10.
OUT: True

IN: I'd appreciate it if you could say whether EWSWSDSMHQFMNENT has phage ELISA signal ratio at least equal to 10.
OUT: True

IN: I'd appreciate it if you could say whether MLPFQDWYTQDDVLMN has phage ELISA signal ratio at least equal to 10.
OUT: True

IN: I'd appreciate it if you could say whether WRWDEYDHQFVEEVQM has phage ELISA signal ratio at least equal to 10.
OUT: True
